# System: respiratory syncytial virus A2 (ATCC VR-1540)
# measurement-description: Cytopathic effect assay with RSV A2 in MA-104 cells
# Format: cell-based
# setup-conditions: human respiratory syncytial virus, MA104, CPE inhibition, neutral red
pEC50: −log10 of the molar value.
assay-metric: pEC50

Below, 2 compounds whose answers are already recorded.
1) CC(C)OC(=O)[C@H](C)NP(=O)(OC[C@@]1(C)O[C@@H](n2cnc3c(N(C)C)nc(N)nc32)[C@H](F)[C@@H]1O)Oc1ccccc1 (stereo partly drawn) :: > 3.77
2) CC[C@]1(COP(=O)(N[C@@H](C)C(=O)OC(C)C)Oc2ccccc2)O[C@@H](n2cnc3c(N(C)C)nc(N)nc32)[C@@H](F)[C@@H]1O (stereo partly drawn) :: < 3.79

Query compound follows.
Q: I would be grateful if you could share the reported pEC50 for CC(C)OC(=O)[C@H](C)NP(=O)(OC[C@@]1(CCl)O[C@@H](n2cnc3c(N(C)C)nc(NC(=O)C(C)C)nc32)[C@H](F)[C@@H]1O)Oc1ccccc1 (stereo partly drawn) .
A: < 3.85

----------
# System: Differentiated normal human bronchial epithelial (dNHBE) cells
# measurement-description: dNHBE assay: toxicity evaluated microscopically
# Assay type: cell-based
# Set-up: unit not given here
assay-metric: Visual toxicity

Below, 6 compounds whose answers are already recorded.
1. CC(C)OC(=O)[C@H](C)N[P@](=O)(OC[C@@]1(C)O[C@@H](n2cnc3c(N(C)C)nc(F)nc32)[C@H](F)[C@@H]1O)Oc1ccccc1 :: >16
2. CNc1nc(F)nc2c1ncn2[C@@H]1O[C@](CCl)(CO[P@@](=O)(N[C@@H](C)C(=O)OC(C)C)Oc2ccccc2)[C@@H](O)[C@@H]1F :: >1.6
3. CNc1nc(N)nc2c1ncn2[C@@H]1O[C@](CCl)(CO[P@@](=O)(N[C@@H](C)C(=O)OC(C)C)Oc2ccccc2)[C@@H](O)[C@H]1F :: >1.6
4. CNc1nc(F)nc2c1ncn2[C@@H]1O[C@](C)(CO[P@@](=O)(N[C@@H](C)C(=O)OC(C)C)Oc2ccccc2)[C@@H](O)[C@@H]1F :: >1.7
5. CC(C)OC(=O)[C@H](C)N[P@](=O)(OC[C@@]1(C)O[C@@H](n2cnc3c(N(C)C4CC4)nc(N)nc32)[C@H](F)[C@@H]1O)Oc1ccccc1 :: >1.6
6. CNc1nc(OC)nc2c1ncn2[C@@H]1O[C@](C)(CO[P@@](=O)(N[C@@H](C)C(=O)OC(C)C)Oc2ccccc2)[C@@H](O)[C@H]1F :: >1.7

Q: I would be grateful if you could share the reported Visual toxicity for CC[C@]1(COP(=O)(N[C@@H](C)C(=O)OC(C)C)Oc2ccccc2)O[C@@H](n2cnc3c(N(C)C)nc(N)nc32)[C@H](F)[C@@H]1O (stereo partly drawn) .
A: >143

Q: I would be grateful if you could share the reported Visual toxicity for CNc1nc(N)nc2c1ncn2[C@@H]1O[C@](C)(COP(=O)(N[C@@H](C)C(=O)OC(C)C)Oc2ccccc2)[C@@H](O)[C@H]1F (stereo partly drawn) .
A: >172

Q: I would be grateful if you could share the reported Visual toxicity for CC(C)OC(=O)[C@H](C)N[P@](=O)(OC[C@@]1(C)O[C@@H](n2cnc3c(N(C)C)nc(NC(=O)C(C)C)nc32)[C@H](F)[C@@H]1O)Oc1ccccc1 .
A: >1.5

Q: I would be grateful if you could share the reported Visual toxicity for CC(C)OC(=O)[C@H](C)NP(=O)(OC[C@@]1(CCl)O[C@@H](n2cnc3c(N(C)C)nc(N)nc32)[C@H](F)[C@@H]1O)Oc1ccccc1 (stereo partly drawn) .
A: 158
